Biological target: Electrophorus electricus (ee) AChE (Electrophorus electricus (Electric eel) (Gymnotus electricus), UniProt O42275)
Sequence (O42275 whole entry, looked up): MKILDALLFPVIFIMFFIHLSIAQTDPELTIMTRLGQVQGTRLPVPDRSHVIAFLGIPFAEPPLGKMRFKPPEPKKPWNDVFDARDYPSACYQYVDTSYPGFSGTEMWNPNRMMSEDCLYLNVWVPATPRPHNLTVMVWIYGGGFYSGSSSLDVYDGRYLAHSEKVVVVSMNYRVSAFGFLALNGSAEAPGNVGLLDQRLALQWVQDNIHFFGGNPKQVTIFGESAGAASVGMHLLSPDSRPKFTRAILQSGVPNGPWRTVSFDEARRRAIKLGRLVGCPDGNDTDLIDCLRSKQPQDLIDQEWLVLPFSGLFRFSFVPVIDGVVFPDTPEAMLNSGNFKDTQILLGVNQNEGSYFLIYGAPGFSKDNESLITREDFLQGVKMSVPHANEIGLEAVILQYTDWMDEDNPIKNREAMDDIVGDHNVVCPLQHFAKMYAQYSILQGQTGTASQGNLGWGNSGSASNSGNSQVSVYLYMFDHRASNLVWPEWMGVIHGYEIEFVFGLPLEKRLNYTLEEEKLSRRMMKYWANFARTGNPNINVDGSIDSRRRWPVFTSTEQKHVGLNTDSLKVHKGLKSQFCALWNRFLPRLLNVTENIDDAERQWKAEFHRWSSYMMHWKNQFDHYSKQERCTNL
Experiment: AChE inhibition assay (Ellman), eeAChE
Format: biochemical
pIC50: −log10 of the molar value. Where a name gives a salt, the structure may show the parent alone.
Label y for high-side pIC50 (at or above 7) and n for low-side pIC50 (below it).

Field: example entries. Status: answers known.
Assess whether reported pIC50 for O=C(O)c1cc(O)c2c(c1)C(=O)c1cccc(O)c1C2=O [Rhein, rhein, reference compound] sits at 7 or higher.
n

// inclusive: pIC50 at least 7? input: CC1=C[C@@H]2Cc3nc4cc(Cl)ccc4c(NCCCCCCCCCNC(=O)c4cc(O)c5c(c4)C(=O)c4cccc(O)c4C5=O)c3[C@H](C1)C2 [(−)-(Ib)•HCl]
y

API: above_or_equal(metric=pIC50, cutoff=7) for item CC1=CC2Cc3nc4cc(Cl)ccc4c(NCCCCCCCCCNC(=O)c4cc(O)c5c(c4)C(=O)c4cccc(O)c4C5=O)c3C(C1)C2 (racemic) [(±)-(Ib)•HCl]
y

Okay, next one:
Can CC1=CC2Cc3nc4cc(Cl)ccc4c(NCCCCCCCCCCNC(=O)c4cc(O)c5c(c4)C(=O)c4cccc(O)c4C5=O)c3C(C1)C2 (racemic) [(±)-(Ic)•HCl] be said to have pIC50 at or above 7?
y
